So I've got a bunch of variants here, and I need their self-cleavage values.
B1: CPEB3 Ribozyme (parent)
chain: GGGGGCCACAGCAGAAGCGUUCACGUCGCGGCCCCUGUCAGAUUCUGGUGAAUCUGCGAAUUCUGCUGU

Variants of: B1
Experiment: self-cleavage, relative activity (ratio to wild type); higher = more cleavage; co-transcriptional
Form rule: numeric answer, no unit written next to it.

Item: C24A C33G | self-cleavage: 0.33

Form: variant = G19C ; self-cleavage = 0.154

The variant listed as G11U U53G has a reported self-cleavage of 0.487

Record U36C C39G , field self-cleavage: 0.847

Lab note: measured self-cleavage of G4A U69A was 0.912

Form: variant = G48A U55C ; self-cleavage = 0.949

Looking up A15U G31C , I see its self-cleavage listed as 0.183

Kindly note the recorded self-cleavage for C12U U26A , which is 0.91

Value of self-cleavage reported for the variant U46G G56C is 0.65

For G11U G17U the variant record lists self-cleavage as 0.148

// self-cleavage value for G11A U53C : 0.352

Lab note: measured self-cleavage of C32U G68U was 1.02

Notebook: G48U U61A , self-cleavage read as 0.924

What the record says about C29G C63U : self-cleavage is 0.418

Measured self-cleavage, G30C U43G : 0.369

Just so you know, measured self-cleavage for G17C U64A came out at 0.112

So, G2U G65C ? Its self-cleavage was 0.0564

Lab note: U53A C63G gave self-cleavage of 0.709

// self-cleavage lookup, variant = G14U C45A , result: 0.665

For this variant ( G58U G68A ), measured self-cleavage is 0.993

Record G14C C29G , field self-cleavage: 0.172

Reported self-cleavage ( G3C A23G ) = 0.0477

Form: variant = G30C C66A ; self-cleavage = 0.397

The reported value for A40C C54A in terms of self-cleavage is 0.244

The reported self-cleavage of the variant G2C C66U was 0.0685

The recorded self-cleavage for entry C39G U69C equals 1.05

self-cleavage in this record for C12G G30C : 0.367

Query C22G G25U yields self-cleavage of 0.146

Given item G4U A10U , the value recorded as its self-cleavage is 0.983

response.value for C6A U53A (field: self-cleavage) = 0.422

Kindly note the recorded self-cleavage for U38C A40G , which is 0.842

Measured self-cleavage, U21A U49A : 0.96

Looking up U20C C54U , I see its self-cleavage listed as 0.182

self-cleavage reading for C12A A52C : 0.571

So for U55C C63G , the logged self-cleavage turned out to be 0.532

Record C32U G68A , field self-cleavage: 0.977

Lab book: self-cleavage of U55G C57G noted as 0.39

Recorded result, A8C C18G , self-cleavage: 0.186

Note to self: self-cleavage recorded for A51C C54G was 0.585

self-cleavage in this record for C7U G68A : 0.971

Consider A42G U46A . Its measured self-cleavage is 0.935
